# credit: patent US20250171542A1

Measured koff, listed per entry for reference.
Target: T1, cynomolgus PD-L1-His (Sino Biological, Cat. 90251-C08H) (cynomolgus, UniProt Q9NZQ7 19-238 (human entry))
T1 construct: Bought protein; also called Cyno PD-L1; Cynomolgus PD-L1 ECD-His; not shown: His tag
T1 sequence (Q9NZQ7 other isoform, or with tags, fused parts or gaps C08H C08H limits assumed): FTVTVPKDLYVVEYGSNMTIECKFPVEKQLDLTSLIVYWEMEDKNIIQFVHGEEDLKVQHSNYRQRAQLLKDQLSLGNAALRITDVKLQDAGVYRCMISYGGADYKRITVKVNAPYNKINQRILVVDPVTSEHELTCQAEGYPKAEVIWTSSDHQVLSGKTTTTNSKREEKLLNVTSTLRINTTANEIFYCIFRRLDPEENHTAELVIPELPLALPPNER
Assay: BLI (Gator), cynomolgus PD-L1
Kindly provide the numeric value in s⁻¹ only, without the unit symbol.

27A2 (antibody, human IgG1, V domains shown) VH: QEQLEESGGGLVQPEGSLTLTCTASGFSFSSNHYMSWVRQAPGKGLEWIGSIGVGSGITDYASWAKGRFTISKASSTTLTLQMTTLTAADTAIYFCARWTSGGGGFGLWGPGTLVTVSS VL: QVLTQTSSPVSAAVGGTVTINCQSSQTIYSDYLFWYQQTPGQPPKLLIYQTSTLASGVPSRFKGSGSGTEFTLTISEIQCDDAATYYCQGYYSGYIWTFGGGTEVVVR
1.3e-05
33E8 (antibody, human IgG1, V domains shown) VH: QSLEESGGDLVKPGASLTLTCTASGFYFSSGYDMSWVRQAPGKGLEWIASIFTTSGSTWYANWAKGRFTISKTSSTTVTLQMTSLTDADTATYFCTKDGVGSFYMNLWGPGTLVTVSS VL: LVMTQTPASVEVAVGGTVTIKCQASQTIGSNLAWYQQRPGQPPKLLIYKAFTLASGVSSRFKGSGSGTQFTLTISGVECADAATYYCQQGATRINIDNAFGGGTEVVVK
0.000202

Now for the binder whose koff we want.
// koff lookup, key: 74F4 (antibody, human IgG1, V domains shown) VH: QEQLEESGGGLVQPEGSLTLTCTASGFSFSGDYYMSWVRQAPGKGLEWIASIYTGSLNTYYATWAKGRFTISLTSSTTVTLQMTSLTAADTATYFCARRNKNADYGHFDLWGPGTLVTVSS VL: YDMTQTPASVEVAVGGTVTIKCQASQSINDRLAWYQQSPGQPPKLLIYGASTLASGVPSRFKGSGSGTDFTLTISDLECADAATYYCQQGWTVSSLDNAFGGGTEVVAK
5e-06
